target entity: Histamine H4 receptor (Homo sapiens, UniProt Q9H3N8)
Sequence (Q9H3N8 whole entry): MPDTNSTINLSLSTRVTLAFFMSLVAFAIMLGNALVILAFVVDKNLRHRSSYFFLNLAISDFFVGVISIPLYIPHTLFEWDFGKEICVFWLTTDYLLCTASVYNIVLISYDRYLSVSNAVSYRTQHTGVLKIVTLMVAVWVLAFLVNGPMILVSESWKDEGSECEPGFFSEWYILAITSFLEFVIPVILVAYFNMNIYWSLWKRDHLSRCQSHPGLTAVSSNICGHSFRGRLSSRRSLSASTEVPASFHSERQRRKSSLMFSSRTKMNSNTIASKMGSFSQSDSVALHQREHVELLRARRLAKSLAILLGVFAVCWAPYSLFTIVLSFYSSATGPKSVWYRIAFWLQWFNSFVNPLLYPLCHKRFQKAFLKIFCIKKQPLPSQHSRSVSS
measurement description: Displacement of [3H]-histamine from recombinant human H4 receptor expressed in Sf9 cell membranes co-expressing Galphai2/Gbeta1gamma2
pKi: −log10 of the molar value.
measurement name: pKi

INSERT INTO assay_data (compound, target_entity, reading_qualifier, numeric_value) VALUES
  ('CN1CCN(c2nc(N)nc(CCCC3CCCCC3)n2)CC1', 'Histamine H4 receptor (Homo sapiens, UniProt Q9H3N8)', '<', 5.00),
  ('CN1CCN(c2nc(N)nc(CCC3CCCCC3)n2)CC1', 'Histamine H4 receptor (Homo sapiens, UniProt Q9H3N8)', '=', 5.55),
  ('CN1CCN(c2nc(N)nc(CC(C)(C)C)n2)CC1', 'Histamine H4 receptor (Homo sapiens, UniProt Q9H3N8)', '=', 6.61),
  ('CCC(C)c1nc(N)nc(N2CCN(C)CC2)n1 (centres undefined)', 'Histamine H4 receptor (Homo sapiens, UniProt Q9H3N8)', '=', 6.14),
  ('CCC(CC)c1nc(N)nc(N2CCN(C)CC2)n1', 'Histamine H4 receptor (Homo sapiens, UniProt Q9H3N8)', '=', 5.88),
  ('CCCc1nc(N)nc(N2CCN(C)CC2)n1', 'Histamine H4 receptor (Homo sapiens, UniProt Q9H3N8)', '=', 6.73),
  ('CC(C)=Cc1nc(N)nc(N2CCN(C)CC2)n1', 'Histamine H4 receptor (Homo sapiens, UniProt Q9H3N8)', '=', 6.33),
  ('CC(C)c1nc(N)nc(N2CCN(C)CC2)n1', 'Histamine H4 receptor (Homo sapiens, UniProt Q9H3N8)', '=', 6.56),
  ('COCc1nc(N)nc(N2CCN(C)CC2)n1', 'Histamine H4 receptor (Homo sapiens, UniProt Q9H3N8)', '<', 5.00),
  ('CCc1nc(N)nc(N2CCN(C)CC2)n1', 'Histamine H4 receptor (Homo sapiens, UniProt Q9H3N8)', '=', 6.09),
  ('CN1CCN(c2nc(N)nc(C(C)(C)C)n2)CC1', 'Histamine H4 receptor (Homo sapiens, UniProt Q9H3N8)', '=', 5.97),
  ('Cc1nc(N)nc(N2CCN(C)CC2)n1', 'Histamine H4 receptor (Homo sapiens, UniProt Q9H3N8)', '=', 5.57),
  ('CC(C)Cc1nc(N)nc(N2CCN(C)CC2)n1', 'Histamine H4 receptor (Homo sapiens, UniProt Q9H3N8)', '=', 6.28),
  ('CN1CCN(c2nc(N)nc(CC3CCCCC3)n2)CC1', 'Histamine H4 receptor (Homo sapiens, UniProt Q9H3N8)', '=', 6.80);
